Exercise: state measured IC50 for each of the compounds provided.
# Target or test system: NLRP3 (Homo sapiens, UniProt Q96P20)
# Construct: Seed THP-1 cells (25,000 cells/well) containing 1.0 μg/ml LPS in 40 μl of RPMI medium
# Sequence (Q96P20 whole entry): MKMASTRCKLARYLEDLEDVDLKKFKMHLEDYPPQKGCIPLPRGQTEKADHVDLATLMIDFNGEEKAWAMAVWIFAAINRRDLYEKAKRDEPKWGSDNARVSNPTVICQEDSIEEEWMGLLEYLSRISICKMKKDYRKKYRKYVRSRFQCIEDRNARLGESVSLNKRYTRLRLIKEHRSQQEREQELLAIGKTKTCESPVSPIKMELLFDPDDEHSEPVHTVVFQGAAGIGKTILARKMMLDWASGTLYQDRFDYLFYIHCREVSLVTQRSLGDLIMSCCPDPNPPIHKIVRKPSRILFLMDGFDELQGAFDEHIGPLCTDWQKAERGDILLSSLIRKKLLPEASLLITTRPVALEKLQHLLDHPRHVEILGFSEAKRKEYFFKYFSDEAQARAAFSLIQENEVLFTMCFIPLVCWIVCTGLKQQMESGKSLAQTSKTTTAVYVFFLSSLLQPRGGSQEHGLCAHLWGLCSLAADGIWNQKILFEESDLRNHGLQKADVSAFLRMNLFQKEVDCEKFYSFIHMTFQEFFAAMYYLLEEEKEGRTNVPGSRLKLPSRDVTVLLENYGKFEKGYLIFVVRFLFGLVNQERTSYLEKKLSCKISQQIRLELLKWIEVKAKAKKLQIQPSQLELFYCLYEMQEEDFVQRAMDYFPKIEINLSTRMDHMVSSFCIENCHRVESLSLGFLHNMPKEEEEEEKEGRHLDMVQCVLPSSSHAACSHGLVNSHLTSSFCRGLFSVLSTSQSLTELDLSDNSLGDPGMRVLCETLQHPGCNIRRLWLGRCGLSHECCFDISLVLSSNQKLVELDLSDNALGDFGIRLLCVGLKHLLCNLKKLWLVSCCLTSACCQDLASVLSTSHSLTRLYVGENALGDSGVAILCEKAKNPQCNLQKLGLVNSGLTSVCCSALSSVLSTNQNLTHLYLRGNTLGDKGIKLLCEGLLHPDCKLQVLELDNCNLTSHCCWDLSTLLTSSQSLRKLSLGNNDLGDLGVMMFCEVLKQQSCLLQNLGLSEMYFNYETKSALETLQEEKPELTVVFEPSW
# Assay info: THP-1 Cells Pyroptosis Assay
# Setup conditions: THP-1 cells with 1.0 μg/ml LPS; compound 3 hours; nigericin 5 μM 1 hr; resazurin readout
Structures can show the parent of a compound that is named as a salt.
Please report the result as a number followed by the unit.

CCN1C[C@H](O)C[C@@H](Nc2nc3nc(-c4c(C)cc(Cl)cc4O)ccc3o2)C1 [Example 68] | 62.4 nM
Cc1cc(Cl)cc(O)c1-c1ccc2oc(CC3CN(C(C)C)CCO3)nc2n1 (centres unmarked) [Example 88] | 6 nM
CCN1CCC[C@@H](Nc2nc3nc(-c4c(C)cc(C(F)(F)F)cc4O)cc(C#N)c3o2)C1 [Example 117] | 5.2 nM
Cc1cc(C(F)(F)F)cc(O)c1-c1ccc2oc(N3CCNCC3)nc2n1 [Example 6, formic acid salt] | 86.6 nM

Quick batch: IC50 for everything below.
1. CNC1CCCC(Nc2nc3nc(-c4c(C)cc(C(F)(F)F)cc4O)ccc3o2)C1 (mixture of isomers) [Example 7]
2. CCN1CCC[C@@H](Nc2nc3nc(-c4c(C)cc(F)cc4O)ccc3o2)C1 [Example 45]
3. Cc1cc(Cl)cc(O)c1-c1ccc2oc(N[C@@H]3CCCN(CC4CC(O)C4)C3)nc2n1 (some centres unmarked) [Example 75]
4. COC(=O)CCCN1CCC[C@@H](Nc2nc3nc(-c4c(C)cc(Cl)cc4O)ccc3o2)C1 [Example 84]

Key:
1. 82.1 nM
2. 0.9 nM
3. 20.8 nM
4. 0.8 nM
